Test system: MDA-MB-435
assay_protocol: NCI tumour cell line growth inhibition, 48 h
measure: TGI

[Q] Param item = CN(C)C1C(=O)C(C(=O)NCN2CCCC2)=C(O)C2(O)C(=O)C3=C(O)c4c(O)cccc4C(C)(O)C3CC12 (stereo not given) ; retrieve measured TGI.
[A] > 100 µM

[Q] Would you mind telling me what TGI value was observed for C=CCN1CCN([C@H](c2ccc(C(=O)N(CC)CC)cc2)c2cccc(OC)c2)CC1 ?
[A] > 25 µM

[Q] Need TGI of O=C1C(Cl)=C(Cl)C(=O)C2=C1C1c3ccccc3C2c2ccccc21 , thanks.
[A] > 100 µM

[Q] I am curious: what TGI value has been reported for CCOC(=O)C(=O)/C(=C/n1c(=S)[nH]c2ccc([N+](=O)[O-])cc21)C(=O)OCC ?
[A] > 100 µM

[Q] Return reported TGI; argument: CC(C)=CCC/C(C)=C/CO
[A] > 100 µM

---

Answer each item with its documented GI50.
System: SF-539 CNS
assay_protocol: NCI tumour cell line growth inhibition, 48 h

[Q] Could you tell me which GI50 is on file for COc1cccc(/C=N/[N-]C(=O)c2ccncc2)c1[O-].[Ni+2].[OH3+] ?
[A] > 100 µM

[Q] May I ask what GI50 has been recorded for O=c1c2cc(F)ccc2sc2c(Nc3ccncc3)nc3ccccc3c12 ?
[A] 1.72 µM

[Q] # lookup: GI50 of CC(=O)NS(=O)(=O)c1ccc(-n2nc(-c3ccc(Cl)cc3)cc2-c2cc(O)ccc2O)cc1
[A] 32.4 µM

[Q] Looking for the measured GI50 of COc1cc2c(cc1OCCCCCn1c(-c3ccc(OCc4ccccc4)cc3)nc3cc(N4CCOCC4)ccc31)N=C[C@@H]1CCCN1C2=O , can you help?
[A] 2.42 µM

[Q] Could you share which GI50 value was measured for Nc1nonc1C(=Nc1ccc(F)c(Cl)c1)NO ?
[A] 54.2 µM

[Q] Return reported GI50; argument: CCn1c(=O)c(Oc2ccc(F)cc2F)cc2cnc(NC3CCOCC3)nc21
[A] > 25 µM

[Q] May I ask what GI50 has been recorded for Nc1nc(N)c(N=Nc2ccccc2)c(-c2ccccc2)n1 ?
[A] 6.39 µM

[Q] Field request: GI50 | item: COc1cc(/C=C/c2cc(/C=C/c3ccc(O)c(OC)c3)n(-c3c(Cl)cccc3Cl)c(=O)n2)ccc1O
[A] 2.18 µM

[Q] Given the compound CN(C)c1cc[n+](/C(NS(=O)(=O)c2cc(C(=O)Nc3ccc(Cl)cc3)c(Cl)cc2[S-])=C(\C#N)C(=O)c2ccccc2)cc1 , what is its reported GI50?
[A] 11.9 µM

[Q] Look up GI50 for this compound: O=C(c1ccc(Cl)cc1)c1no[n+]([O-])c1C(=O)c1ccc(Cl)cc1
[A] 3.24 µM

---

Test system: ACHN renal
assay_protocol: NCI tumour cell line growth inhibition, 48 h
measure: TGI

[Q] // returns reported TGI for input C=CCOC(C)n1c(C)cc(=O)n(C(C)OCC=C)c1=O (centres undefined)
[A] > 100 µM

[Q] Query: TGI; subject: C1CSC(Sc2nc(SC3=NCCS3)nc(SC3=NCCS3)n2)=N1
[A] > 100 µM

[Q] What value of TGI has been reported for the following molecule? O=C1C(Cl)=C(N2CCN(CCOCCO)CC2)C(=O)c2ncccc21
[A] > 10 µM

[Q] Which TGI is listed for CO[C@@H]1C[C@H](OC(N)=O)[C@@H]2C=C[C@@H]3/C=C(C)/C=C/[C@@H](C)[C@H]([C@H](C)[C@H](O)[C@@H](C)NC(C)=O)OC(=O)/C=C/C=C(C)\C=C\[C@]3(C)[C@@H]2C1 ?
[A] 2.67 µM

[Q] Requested read-out: TGI. Entry: c1ccc(C2(c3ccccc3)SSC3(S2)C2CC4CC(C2)CC3C4)cc1 (centres undefined)
[A] > 100 µM

[Q] Please report the recorded TGI for O=c1c(Cc2c(O)ccc3ccccc23)nnc2sc(-c3nn4c(=O)c(Cc5c(O)ccc6ccccc56)nnc4s3)nn12 .
[A] > 100 µM

[Q] Using the record for CNCCCCN(C)/[N+]([O-])=N\O , report its TGI.
[A] > 100 µM

[Q] Which measured TGI value corresponds to CCO/C=N/C1=C(C#N)C(c2ccc(OC)cc2)c2sc3c(F)cccc3c2O1 (centres undefined) ?
[A] > 100 µM

[Q] Fill in: TGI of CC(=O)O[C@H]1C(=O)[C@@]2(C)[C@H]([C@H](OC(=O)c3ccccc3)[C@]3(O)C[C@H](OC(=O)[C@H](O)[C@@H](NC(=O)c4ccccc4)c4ccccc4C)C(C)=C1C3(C)C)[C@]1(OC(C)=O)CO[C@@H]1C[C@@H]2O is ___
[A] > 25 µM

---

Hi there, I'd appreciate the recorded GI50 for every entry that follows.
Tested on: MCF7 breast
assay_protocol: NCI tumour cell line growth inhibition, 48 h

[Q] GI50 for COC(=O)[C@@H](C)C[C@H](Cc1ccc2ccccc2c1)NC(=O)c1csc([C@@H](C[C@H](C(C)C)N(C)C(=O)[C@@H](NC(=O)[C@H]2CCCCN2C)C(C)C)OC(C)=O)n1 ?
[A] 0.00699 µM

[Q] Bench note: what GI50 did COc1cc2c3c(n(CCCNCCNCCN)c(=O)c2cc1OC)-c1cc2c(cc1C3=O)OCO2 show?
[A] 0.434 µM

[Q] Fill blank: measured GI50 of the compound CC1(C)C(N(O)C(=O)Nc2ccc(Cl)cc2)N(c2ccc(Cl)cc2)C(=O)N1CC(=O)N/N=C/C=C/c1ccc([N+](=O)[O-])o1 (configuration not stated) is ____.
[A] 1.01 µM

[Q] Requested field: GI50. Item: Clc1ccc2c(c1)C(Br)c1cc(Cl)cc(Cl)c1-2 (configuration not stated)
[A] 20.5 µM

[Q] // returns reported GI50 for input c1ccc([P+](c2ccccc2)(c2ccccc2)c2ccc3c4ccc([P+](c5ccccc5)(c5ccccc5)c5ccccc5)c5cccc(c6cccc2c63)c54)cc1
[A] 1.25 µM

[Q] Value lookup for GI50; key = COc1cc(/C=C/c2cc(/C=C/c3ccc(O)c(OC)c3)n(-c3c(Cl)cccc3Cl)c(=O)n2)ccc1O
[A] 2 µM

[Q] Given the compound COc1cc2c(cc1I)-c1c(cc(OC)c(OC)c1OC)CC[C@@H]2NC(C)=O , what is its reported GI50?
[A] 0.37 µM

---

Tested on: SK-OV-3 ovarian
assay_protocol: NCI tumour cell line growth inhibition, 48 h
Field: TGI. Provide a value for each of the compounds that follow.

[Q] Which TGI is listed for Cc1cc2nc(C#N)c(N3CCN(c4ccc([N+](=O)[O-])cc4)CC3)nc2cc1C ?
[A] > 100 µM

[Q] Request the reported TGI associated with COC(=O)CN(CC1O[C@@H]2OC(C)(C)O[C@@H]2C1N=[N+]=[N-])C(=O)OCc1ccccc1 (some centres undefined)
[A] > 100 µM

[Q] What does the record list as TGI for O=C1c2[nH]c3ccccc3c2CCN2CCCCC12 (centres undefined) ?
[A] > 100 µM

[Q] # get_value(readout='TGI', item= CCO/C=N/C1=C(C#N)C(c2ccc(OC)cc2)c2sc3c(F)cccc3c2O1 (centres undefined) )
[A] > 100 µM

[Q] Given CC(N)Cc1ccc(F)cc1 (centres undefined) , state its recorded TGI.
[A] > 100 µM

[Q] Would you mind telling me what TGI value was observed for CCOC(=O)C1CCCCN1C(=O)OCc1ccccc1 (centres undefined) ?
[A] > 100 µM

[Q] Can you look up the measured TGI of CCOC(=O)C12CCCC1(O)N(NC(N)=O)C(C)=C2C(=O)OC (centres undefined) for me?
[A] > 100 µM

[Q] Find the recorded TGI belonging to COc1cc([C@@H]2c3cc4c(cc3[C@@H](Nc3ccc(N=Cc5ccc(C(=O)O[C@@H](C(=O)O[C@H]6C[C@@]7(O)[C@@H](OC(=O)c8ccccc8)[C@@H]8[C@]9(OC(C)=O)CO[C@@H]9C[C@H](O)[C@@]8(C)C(=O)[C@H](OC(C)=O)C(=C6C)C7(C)C)[C@@H](NC(=O)c6ccccc6)c6ccccc6)cc5)cc3)[C@H]3COC(=O)[C@H]23)OCO4)cc(OC)c1O and report it.
[A] > 35.8 µM

[Q] Can you look up the measured TGI of CCC(=O)/C=C/c1ccccc1 for me?
[A] > 100 µM

[Q] Request the reported TGI associated with CNCC(=O)Nc1ccc2c(c1)C(=O)c1ccc(NC(=O)CNC)cc1C2=O
[A] 3.81 µM

[Q] GET /values?readout=TGI&item= CC(=O)/C=C/c1ccc(OCc2ccc(C(C)(C)C)cc2)cc1
[A] > 1000 µM

[Q] May I ask what TGI has been recorded for c1ccc2cc(C[n+]3ccn(CCCCCCCCCCCCn4cc[n+](Cc5ccc6ccccc6c5)c4)c3)ccc2c1 ?
[A] 1.8 µM

[Q] Please look up its TGI: Cc1nn(C(=O)c2ccccc2O)c2c1C(c1ccc3ccccc3c1O)SC(N)=N2 (centres undefined)
[A] > 10 µM

[Q] Tell me the measured TGI of CN(CCCCCl)P(=O)(OCC1=CC(=O)c2ccccc2C1=O)OC[C@H]1O[C@@H](n2cc(F)c(=O)[nH]c2=O)C[C@@H]1O (some centres undefined) , please.
[A] > 42.8 µM

[Q] // returns reported TGI for input O=CN(CCN1CCCC1)C1CCc2cc(Cl)c(Cl)cc2C1 (centres undefined)
[A] 29 µM

[Q] Item CCCN=Cc1c(O)c(O)c(C(C)C)c2cc(C)c(-c3c(C)cc4c(C(C)C)c(O)c(O)c(C=NCCC)c4c3O)c(O)c12 has what recorded TGI?
[A] > 30.8 µM

[Q] So what does the record say about TGI for O=C1C(c2c(O)[nH]c3ccc([N+](=O)[O-])cc23)=Nc2ccccc21 ?
[A] > 100 µM

[Q] Request the reported TGI associated with O=C1Nc2cc(Cl)ccc2C(=O)N2CCC[C@@H]12
[A] > 100 µM

[Q] Look up TGI for this compound: C[N+](C)(C)CCN(Cc1cccs1)c1ccccn1
[A] > 100 µM
